Settings: pampa; pH 5.0; 30.0 min; 50.0 µM
Examples of compounds with documented Papp follow.
Give the quantity in ×10⁻⁶ cm/s, number only.

Reference set (5 entries):
# Structure, Papp, ×10⁻⁶ cm/s
data = [
    ("COc1cc([C@@H]2c3cc4c(cc3[C@H](O)[C@H]3COC(=O)[C@H]23)OCO4)cc(OC)c1OC", 262),
    ("COc1ccc(-c2nc3c(c(SCC(=O)Nc4ccc(C(=O)O)cc4)n2)Cc2ccccc2O3)cc1", 36.6),
    ("S=c1[nH]c2ccccc2n1CCc1ccccc1", 903),
    ("Cc1nc(-c2ccco2)cc([C@H]2CN3CC[C@H]2C[C@@H]3CNC(=O)NC2CCCCC2)n1", 4.96),
    ("COc1ccccc1-c1[nH]nc2ncc(-c3ccc(C)cc3)nc12", 1.92),
]

I would be grateful if you could share the reported Papp for `COc1ccc(CN2CCNc3cc(Nc4ccccc4)ncc3C2)cn1` .
2.38

And the next one, `O=C(Cc1cccs1)NCc1nnc2ccc(-c3ccccc3)nn12` ?
55.9

And the next one, `O=C(Nc1ccc(N2CCC(N3CCCCC3)CC2)c(C(=O)O)c1)c1ccc(Br)cc1` ?
7.15

* * *

Examples of molecules with documented Papp follow.
Settings: pampa; pH 5.0; 30.0 min; 50.0 µM
Give the quantity in nm/s, number only.

Reference set (3 entries):
# Molecule, Papp (nm/s)
data = [
    ("Cc1c(Cl)cccc1NC(=O)CNS(=O)(=O)c1cccs1", 4580),
    ("CC(C)Oc1cccc(C2CC(=O)Nc3cc4c(cc32)OCO4)c1 (stereo unspecified)", 7850),
    ("Oc1ccc(-c2nc(C3CC3)nc3c2CCN(CC2CCCCC2)CC3)cc1", 1900),
]

I would be grateful if you could share the reported Papp for `COc1ccccc1Nc1ccnc(N2CCN(C(=O)c3ccccc3Cl)CC2)n1` .
358

And the next one, `CCOC(=O)N1CCN(Cc2nc3cc(NC(=O)c4ccc(OC)cc4)ccc3n2C(C)C)CC1` ?
8080

And the next one, `Cc1ccc(CN2CCOC[C@H]2c2ncc(-c3cccc(F)c3)[nH]2)cc1` ?
9950

And the next one, `Cc1ccc(NC2=C(c3ccc(C(F)(F)F)cc3)C(=O)c3ccccc32)cc1F` ?
5740

And the next one, CC(NCc1ccc2c(c1)nc(NC(=O)c1ccc(-c3cn[nH]c3)s1)n2CC(C)(C)O)C(C)(C)C (stereo unspecified) ?
41.6

* * *

Conditions: pampa; pH 5.0; 30.0 min; 50.0 µM
Examples of molecules with documented Papp follow.

Reference set (3 entries):
# Molecule, Measured Metric, Measurement
data = [
    ("Cc1ccc(C(=O)N2CCc3sc(C(=O)NC(C)c4ccccc4)cc3C2)cc1 (centres undefined)", "Papp", "4250 nm/s"),
    ("CCOC(=O)NNc1ccc(N(CC)CC(C)O)nn1 (centres undefined)", "Papp", "85.7 nm/s"),
    ("COc1cccc(CN2CCNc3cc(Nc4ccccc4)ncc3C2)c1", "Papp", "1870 nm/s"),
]

Field: next molecule
I would be grateful if you could share the reported Papp for `CCCCOc1ccc(C(=O)N2CCC(c3n[nH]c(=O)n3-c3ccc(C)cc3)CC2)cc1` .
> 10000 nm/s

* * *

Settings: pampa; pH 5.0; 30.0 min; 50.0 µM
Measured Metric: Papp (×10⁻⁶ cm/s)
Give the quantity in ×10⁻⁶ cm/s, number only.

# Molecule, Papp, ×10⁻⁶ cm/s
records = [
    ("CC(=O)N[C@H]1CN(C2CCN(c3ccc(F)cc3C)CC2)C[C@@H]1C1CC1", 144),
]

I would be grateful if you could share the reported Papp for `CCc1ccccc1Nc1ncnc2c1cnn2-c1ccc(Cl)cc1` .
100

And the next one, `COc1cccc(C(=O)Nc2nc(-c3nnn(-c4ccccc4C(F)(F)F)c3C)ns2)c1` ?
834

* * *

Conditions: pampa; pH 5.0; 30.0 min; 50.0 µM
Examples of compounds with documented Papp follow.
Give the quantity in ×10⁻⁶ cm/s, number only.

Reference set (8 entries):
# Compound, Papp, ×10⁻⁶ cm/s
data = [
    ("O=C1CN(C(=O)CCC(=O)N2CCc3c(nc4cc(-c5ccccc5)[nH]n4c3=O)C2)c2ccccc2N1", 6.84),
    ("COc1ccc(OC)c(CNc2ncnc3onc(C)c23)c1", 250),
    ("COc1ccc(-n2nc(C3CCCN([S+](=O)([O-])c4cccc(C(F)(F)F)c4)C3)[nH]c2=O)cc1 (stereo not drawn)", 564),
    ("COc1ccc(-n2nc3c(N4CCCC(C(=O)NCCc5ccc(C)cc5)C4)nnc(C)c3c2C)cc1 (stereo not drawn)", 467),
    ("COc1cc(C2c3c(oc4cc(C)c(C)cc4c3=O)C(=O)N2CCCN2CCOCC2)ccc1O (stereo not drawn)", 25.3),
    ("CCc1ccc(C2N=C(N)Nc3nc4ccccc4n32)cc1 (stereo not drawn)", 1.54),
    ("O=C(NCCCO)c1ccc(-c2ncc3cnc(-c4cccc(F)c4)cn23)cc1", 21.2),
    ("NC(=O)C1CCN(c2nccc(-c3ccc4c(c3)OCCO4)n2)CC1", 191),
]

I would be grateful if you could share the reported Papp for `CN1CCN(C(=O)Cc2c[nH]c3ncc(-c4ccccc4Oc4ccccc4)cc23)CC1` .
578

* * *

Examples of compounds with documented Papp follow.
Details: pampa; pH 5.0; 30.0 min; 50.0 µM
Give the quantity in ×10⁻⁶ cm/s, number only.

Reference set (5 entries):
# Compound, Papp [×10⁻⁶ cm/s]
rows = [
    ("COC(=O)Nc1nc2ccc(SC(C)C)cc2[nH]1", 510),
    ("Cc1ccc(C(=O)NC2CCN(c3cnn(CC4CC4)c(=O)c3)CC2)cc1C", 498),
    ("CC(C)c1nc(CN(C)C(=O)N[C@H](C(=O)N[C@@H](Cc2ccccc2)C[C@H](O)[C@H](Cc2ccccc2)NC(=O)OCc2cncs2)C(C)C)cs1", 844),
    ("CCCCc1ccc(NC(=O)c2ccc3c(c2)N(S(C)(=O)=O)CC3)cc1", 385),
    ("O=C(NC1CC1)C1CCCN1C(=O)c1cccc(-c2ccccn2)c1 (stereo not given)", 76.5),
]

I would be grateful if you could share the reported Papp for COc1ccc(C(=O)N2CCCC(c3nn(-c4ccc(OC)cc4)c(=O)[nH]3)C2)cc1 (stereo not given) .
255

And the next one, `c1ccc(CNc2cc3c(cn2)CN(Cc2cccnc2)CCN3)cc1` ?
15.8

And the next one, `O=C(c1ccc2ncccc2c1)N1CCc2c(nc3cc[nH]n3c2=O)C1` ?
5.6

And the next one, `COc1ccc(Cn2c(C(=O)O)c(CNCc3cccc(OC)c3)c3ccc(C)cc32)cc1` ?
931

And the next one, CC[C@H]1CN2CCC3CC(OC)C(OC)CC3[C@@H]2C[C@@H]1C[C@H]1NCCC2=C1CC(OC)=C(O)C2 (stereo not given in full) ?
17.9

And the next one, `Cc1ccc(-c2c(CN3CCN(c4cccc(C(F)(F)F)c4)CC3)csc2C)cc1` ?
35

* * *

Settings: pampa; pH 5.0; 30.0 min; 50.0 µM
Measured Metric: Papp (×10⁻⁶ cm/s)
Give the quantity in ×10⁻⁶ cm/s, number only.

# Structure, Measurement Units, Measurement
rows = [
    ("CCCCN(C)C(=O)c1c(C)sc2ccn(CCC)c(=O)c12", "×10⁻⁶ cm/s", 113),
    ("C[C@H]1CN(C(=O)Nc2ccc(F)cc2)C[C@@H]1c1nc(-c2ccccc2)no1", "×10⁻⁶ cm/s", 809),
    ("CCC(CC)c1cc([C@H]2CN3CC[C@H]2C[C@@H]3CNC(=O)Cc2cccs2)nc(-c2ccncc2)n1", "×10⁻⁶ cm/s", 320),
]

Field: next molecule
I would be grateful if you could share the reported Papp for `COc1cccc(CNC(=O)CCCn2nc(C)c3c(C)n(-c4ccc(C)cc4)nc3c2=O)c1OC` .
446

* * *

Conditions: pampa; pH 5.0; 30.0 min; 50.0 µM
Examples of compounds with documented Papp follow.
Give the quantity in ×10⁻⁶ cm/s, number only.

Reference set (3 entries):
# Compound, Measured Metric, Measurement
measured = [
    ("O=c1[nH]c(N2CCOCC2)nc2c1CCN(Cc1ccc(Cl)cc1F)CC2", "Papp", 71.2),
    ("Nc1nc2c(s1)C(c1ccc(F)cc1F)CC(=O)N2 (stereo unspecified)", "Papp", 5),
    ("CC(=O)Nc1ccc(NC(=O)C(NS(=O)(=O)c2ccc(Br)s2)c2ccccc2)cc1 (stereo unspecified)", "Papp", 16.2),
]

I would be grateful if you could share the reported Papp for `CC(=O)NCCNC[C@@H]1C=C(C)[C@H](Cc2nnc(-c3ccccc3)o2)C[C@H]1C(C)C` .
25.8

And the next one, `CC(C)Oc1ccc(C(=O)Nc2ccc3c(c2)CCCN3C(=O)c2cccs2)cc1` ?
800

And the next one, `COC(=O)c1cc2occc2n1Cc1nc(-c2ccc(C)cc2)oc1C` ?
257

And the next one, `Cc1c(-c2cccc(NC(=O)c3ccc(F)c(F)c3)c2)nc2ncccn12` ?
710

And the next one, `CCOC(=O)c1ccc(NC(=O)N2Cc3[nH]cnc3C[C@H]2c2nc(C(C)C)no2)cc1` ?
16.2

And the next one, `CCOC(=O)N1CCN(C(=O)Cn2sc3nc(C)cc(C)c3c2=O)CC1` ?
19.1

And the next one, CCCCOc1ccc(C2c3c(oc4ccc(C)cc4c3=O)C(=O)N2CCCN(C)C)cc1OCC (stereo unspecified) ?
273

And the next one, `CCN(c1ccccc1)S(=O)(=O)c1c(C)nc2scc(C)n2c1=O` ?
479

And the next one, COc1ccc(-n2nc(C3CCCN(C(=O)c4cccc(OC)c4)C3)[nH]c2=O)cc1 (stereo unspecified) ?
431

And the next one, `CC(C)(C)c1ccc(S(=O)(=O)N2CCC(c3ccncc3)CC2)cc1` ?
754

And the next one, `COc1cc2c(Nc3ccc(Br)cc3F)ncnc2cc1OCC1CCN(C)CC1` ?
97.3

And the next one, COc1ccc(-c2nc3ccc(C4=NNC(=O)CC4C)cc3[nH]2)cc1 (stereo unspecified) ?
232
